# Assay Name: Solubility in organic solvents
# Format: physicochemical
# Study Conditions: 20 °C, organic solvent or mixture, thermodynamic from solid; Isopropanol; 20 to 25° C.; at least 12 hours; solid form: monohydrate
Measured Metric: solubility (µg/mL)
# unit: µg/mL | format: bare number

### Prompt For the compound COCCOc1cnc2ccn([C@H](C)c3nnc4c(F)cc(-c5cnn(C)c5)cn34)c(=O)c2c1 [free base monohydrate form of Compound M] , what solubility is on record?
### Response 8800

* * *

# Assay Name: Solubility in organic solvents
# Format: physicochemical
# Study Conditions: 20 °C, organic solvent or mixture, thermodynamic from solid; Methanol; 20 to 25° C.; at least 12 hours; solid form: monohydrate
# Description: In all studies, excess solid of the compound was allowed to equilibrate for at least 12 hours while stirring.
Measured Metric: solubility (mg/mL)
# unit: mg/mL | format: bare number

### Prompt For the molecule COCCOc1cnc2ccn([C@H](C)c3nnc4c(F)cc(-c5cnn(C)c5)cn34)c(=O)c2c1 [free base monohydrate form of Compound M] , what solubility is on record?
### Response 53.9
